# SUBJECT_OF_TEST: Diaphorase
# METHOD_SUMMARY: peptide array, 1 uM labeled diaphorase, with FAD
MEASUREMENT_NAME: fluorescence

The examples below pair each entry with its known result.
[[record]]
binder = "NVSDLSQFYLSGSG"
measurement_name = "fluorescence"
meas_value = 3440

[[record]]
binder = "FQFGKVVSDGSG"
measurement_name = "fluorescence"
meas_value = 2470

[[record]]
binder = "RPLQVQRGGS"
measurement_name = "fluorescence"
meas_value = 14400

[[record]]
binder = "VKDGANKHYWRVSGSG"
measurement_name = "fluorescence"
meas_value = 12300

[[record]]
binder = "EDEGLSKFEGGSG"
measurement_name = "fluorescence"
meas_value = 4170

[[record]]
binder = "RWRYYWKSEGSG"
measurement_name = "fluorescence"
meas_value = 4090


I: RWKYQKFNGGSG
II: EAVQKLLFSGSG
Smaller fluorescence value? Options are I and II Write down the label of the entry you select.
II

1: ELFGALFKGGSG
2: RYYPAFSGGSG
3: WRGFKFADGGSG
4: RYNLYKPSDGSG
Ascending sort, fluorescence. Give the order by naming the labels one after another as requested.
4, 3, 1, 2
(4: 1250, 3: 2160, 1: 3400, 2: 7540)

Taken from patent US20190064177A1.
